- assay notes: MRT infinity in 16 hrs fasted ICR mouse at 2 mg/kg, iv measured upto 8 hrs by LC-MS/MS analysis
- Format: ADME, organism-based
- test parameters: in vivo
quantity measured: MRT inf

COc1ccccc1Nc1c(N[C@H]2CC[C@H](Oc3ccc([N+](=O)[O-])cc3)CC2)c(=O)c1=O
1.3 h

====

- assay notes: AUC last in 16 hrs fasted ICR mouse at 20 mg/kg, po measured upto 8 hrs by LC-MS/MS analysis
- Format: ADME, organism-based
- test parameters: in vivo
quantity measured: AUC(0-t) at 8 h

COc1ccccc1Nc1c(N[C@H]2CC[C@H](Oc3ccc([N+](=O)[O-])cc3)CC2)c(=O)c1=O
2820 ng·h/mL

====

Measured Activity accompanies every entry in the list below.
- assay notes: Downregulation of SREBP-1c mRNA expression in human HepG2 cells at 10 uM pretreated with compound for 30 mins followed by T0901317 addition and measured after 12 hrs by RT-qPCR analysis relative to control
- Assay type: functional
- test parameters: time 12.5 hrs
quantity measured: Activity (%)

COc1ccccc1Nc1c(N[C@H]2CC[C@H](Oc3ccc(C(F)(F)F)cc3)CC2)c(=O)c1=O
30
CS(=O)(=O)c1ccc(O[C@H]2CC[C@H](Nc3c(Nc4ccc(F)cc4)c(=O)c3=O)CC2)cc1
24
CC(C)(C)c1ccc(Nc2c(N[C@H]3CC[C@H](Oc4ccc(C(F)(F)F)cc4)CC3)c(=O)c2=O)cc1
68
COc1ccccc1Nc1c(N[C@H]2CC[C@H](Oc3ccc([N+](=O)[O-])cc3)CC2)c(=O)c1=O
16.2

====

- assay notes: Downregulation of SREBP-1c mRNA expression in human HepG2 cells at 10 uM pretreated with compound for 30 mins followed by T0901317 addition and measured after 12 hrs by RT-qPCR analysis relative to control
- Type: functional
- test parameters: time 12.5 hrs
quantity measured: Activity (%)

O=c1c(Nc2ccc(F)cc2)c(N[C@H]2CC[C@H](Oc3ccc([N+](=O)[O-])cc3)CC2)c1=O
52.9
COc1ccc(Nc2c(N[C@H]3CC[C@H](Oc4ccc(C#N)cc4)CC3)c(=O)c2=O)cc1
70.6
N#Cc1ccc(O[C@H]2CC[C@H](Nc3c(Nc4ccc(F)cc4)c(=O)c3=O)CC2)cc1
87.4
COc1cccc(Nc2c(N[C@H]3CC[C@H](Oc4ccc(C(F)(F)F)cc4)CC3)c(=O)c2=O)c1
69.9

====

- test target: Voltage-gated inwardly rectifying potassium channel KCNH2 (Homo sapiens)
- Sequence (Q12809 whole entry): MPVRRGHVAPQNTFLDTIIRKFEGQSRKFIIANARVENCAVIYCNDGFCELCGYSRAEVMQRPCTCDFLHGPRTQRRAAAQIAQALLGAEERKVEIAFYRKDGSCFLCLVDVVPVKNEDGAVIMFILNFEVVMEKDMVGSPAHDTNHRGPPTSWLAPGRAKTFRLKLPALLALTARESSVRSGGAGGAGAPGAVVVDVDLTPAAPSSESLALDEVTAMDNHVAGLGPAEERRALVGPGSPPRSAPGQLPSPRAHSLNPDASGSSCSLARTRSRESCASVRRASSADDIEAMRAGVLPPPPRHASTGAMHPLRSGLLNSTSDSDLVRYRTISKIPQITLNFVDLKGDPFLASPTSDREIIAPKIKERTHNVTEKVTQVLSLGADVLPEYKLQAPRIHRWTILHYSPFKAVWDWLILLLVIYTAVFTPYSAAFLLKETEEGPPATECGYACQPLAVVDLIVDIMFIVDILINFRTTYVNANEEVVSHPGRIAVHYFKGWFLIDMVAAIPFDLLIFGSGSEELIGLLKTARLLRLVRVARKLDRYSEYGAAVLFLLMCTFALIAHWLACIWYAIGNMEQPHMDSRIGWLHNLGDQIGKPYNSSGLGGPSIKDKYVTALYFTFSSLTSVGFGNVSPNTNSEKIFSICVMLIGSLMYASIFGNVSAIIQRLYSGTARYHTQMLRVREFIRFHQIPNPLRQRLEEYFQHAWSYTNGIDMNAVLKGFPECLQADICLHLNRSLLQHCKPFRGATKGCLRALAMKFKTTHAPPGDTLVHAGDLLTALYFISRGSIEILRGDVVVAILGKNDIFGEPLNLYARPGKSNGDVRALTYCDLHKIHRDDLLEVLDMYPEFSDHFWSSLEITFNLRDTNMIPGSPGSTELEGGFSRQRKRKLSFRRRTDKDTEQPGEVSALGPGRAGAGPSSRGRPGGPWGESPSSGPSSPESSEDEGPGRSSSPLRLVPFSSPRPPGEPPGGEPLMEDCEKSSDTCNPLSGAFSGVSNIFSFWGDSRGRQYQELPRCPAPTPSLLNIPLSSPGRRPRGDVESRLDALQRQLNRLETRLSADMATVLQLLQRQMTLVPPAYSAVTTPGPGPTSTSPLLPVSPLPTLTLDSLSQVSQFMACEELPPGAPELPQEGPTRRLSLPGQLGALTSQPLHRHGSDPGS
- assay notes: Inhibition of human ERG expressing HEK cells by whole-cell patch clamp assay
pIC50: −log10 of the molar value.
Each entry below lists one item and its recorded pIC50 value.
quantity measured: pIC50

COc1ccccc1Nc1c(N[C@H]2CC[C@H](Oc3ccc(C#N)cc3)CC2)c(=O)c1=O
6.31
COc1ccccc1Nc1c(N[C@H]2CC[C@H](Oc3ccc([N+](=O)[O-])cc3)CC2)c(=O)c1=O
4.48

====

Entries and their Activity
- assay notes: Downregulation of SREBP-1c mRNA expression in human HepG2 cells at 10 uM pretreated with compound for 30 mins followed by T0901317 addition and measured after 12 hrs by RT-qPCR analysis relative to control
- Assay type: functional
- test parameters: time 12.5 hrs
quantity measured: Activity

O=c1c(Nc2ccc(Cl)cc2)c(N[C@H]2CC[C@H](Oc3ccc(C(F)(F)F)cc3)CC2)c1=O
103.6%
O=c1c(Nc2ccccc2)c(N[C@H]2CC[C@H](Oc3ccc(C(F)(F)F)cc3)CC2)c1=O
77%
N#Cc1ccc(O[C@H]2CC[C@H](Nc3c(Nc4ccccc4)c(=O)c3=O)CC2)cc1
84.8%
O=c1c(Nc2ccccc2)c(N[C@H]2CC[C@H](Oc3ccc([N+](=O)[O-])cc3)CC2)c1=O
82.7%
COc1cccc(Nc2c(N[C@H]3CC[C@H](Oc4ccc(C#N)cc4)CC3)c(=O)c2=O)c1
60.6%
COC(=O)c1ccc(Nc2c(N[C@H]3CC[C@H](Oc4ccc(C(F)(F)F)cc4)CC3)c(=O)c2=O)cc1
91.6%
O=c1c(Nc2ccc(Cl)cc2)c(N[C@H]2CC[C@H](Oc3ccc([N+](=O)[O-])cc3)CC2)c1=O
49.8%
COc1cccc(Nc2c(N[C@H]3CC[C@H](Oc4ccc(S(C)(=O)=O)cc4)CC3)c(=O)c2=O)c1
62.5%

Values compiled from ChEMBL document CHEMBL6120940.
